experiment: Protective index as the ratio of TD50 value to that of ED50 value in rat.; assay type: functional
Field: PI. Provide a value for each of the compounds that follow.

Would you please look over these solved cases?
{"columns": ["compound", "PI"],
 "data": [
  ["CCCC(NC(C)=O)C(=O)NCc1ccccc1 (racemic)", ">30"],
  ["COCC(NC(C)=O)C(=O)NCc1ccccc1 (racemic)", 101],
  ["COC[C@@H](NC(C)=O)C(=O)NCc1ccccc1 [LACOSAMIDE]", ">128"]
]}

Go through the list and state PI for each entry.
1. COC[C@@H](NC(C)=O)C(=O)NCc1ccc(N=C=S)cc1
2. COC[C@@H](NC(C)=O)C(=O)NCc1cccc(N=C=S)c1

Completion:
[">59", ">9"]
